# assay.name: IANBD-channel fluorescence artefacts in buffer – biochemical, artefact control for cardiac RTF calcium sensitizer project, confirmation (AID 504382)
# cond: IANBD fluorescence interference counterscreen, EC20 Ca2+, at 7.2 µM, scaled: EC20 calcium 0, EC100 calcium 100
The whole screen tested about 2,500 compounds, of which about 460 (18%) were called active.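 How the source made its calls: active means mean activation above a cutoff of low control average plus 3 SD from the earlier screen (cut at about 12% in these data); inactive means the rest.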 These entries were drawn from the full list.
Labels: YES for active, NO for inactive

>  <compound>
O=C(O)c1ccccc1-c1ccc(/C=C/c2cc(C(F)(F)F)[nH]c(=O)n2)o1

>  <discrete.label>
NO

$$$$
>  <compound>
CN(C)c1ccc(/C=C(\C#N)C(=O)c2ccccc2)cc1

>  <discrete.label>
NO

$$$$
>  <compound>
CCC(=O)Nc1ccc2oc(-c3cccnc3)nc2c1

>  <discrete.label>
YES

$$$$
>  <compound>
CCN(CC)c1ccc(/C=C(\C#N)C(=O)c2ccc(Br)cc2)cc1

>  <discrete.label>
NO

$$$$
>  <compound>
Cc1ccc(C)c(N2CCN(C(=O)CN3C(=S)NC(C)(C)CC3C)CC2)c1 (configuration not stated)

>  <discrete.label>
NO

$$$$
>  <compound>
Nc1ccc2c3c(cccc13)-c1ccccc1-2

>  <discrete.label>
NO

$$$$
>  <compound>
Cc1cc(/C=C2\SC(=S)N(C)C2=O)c(C)n1-c1ccccc1O

>  <discrete.label>
NO

$$$$
>  <compound>
CCN(CC)c1ccc(/C=C(/C#N)C(=O)NCc2ccccc2)o1

>  <discrete.label>
NO

$$$$
>  <compound>
CCN(CC)c1ccc(/C=C(\C#N)C(=O)NCc2ccccc2)cc1

>  <discrete.label>
YES

$$$$
>  <compound>
Cc1ccc2[nH]c(C)c(/C=C/c3cc[n+](C)cc3)c2c1

>  <discrete.label>
YES

$$$$
>  <compound>
Cc1ccc2c(c1)c(/C=C/c1cc[n+](C)cc1)c(C)n2C

>  <discrete.label>
NO

$$$$
>  <compound>
CCN1CC=C2C(C#N)=C(N)C(C#N)(C#N)[C@H](c3ccoc3)[C@H]2C1

>  <discrete.label>
NO

$$$$
